Reference source for all entries: ChEMBL document CHEMBL4680222

- target_under_test: NAD-dependent protein deacylase sirtuin-5, mitochondrial (Homo sapiens) (UniProt Q9NXA8)
- Sequence (Q9NXA8 37-310 limits assumed): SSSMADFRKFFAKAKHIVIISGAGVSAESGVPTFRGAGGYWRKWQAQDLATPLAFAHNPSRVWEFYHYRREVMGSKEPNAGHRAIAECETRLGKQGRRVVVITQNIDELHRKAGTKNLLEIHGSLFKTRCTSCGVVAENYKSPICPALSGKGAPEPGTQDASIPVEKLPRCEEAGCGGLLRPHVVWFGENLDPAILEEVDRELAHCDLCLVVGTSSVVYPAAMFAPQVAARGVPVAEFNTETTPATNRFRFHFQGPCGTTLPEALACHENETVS
- experiment_summary: Substrate activity at human N-terminal His-tagged SIRT5 (34 to 302 residues) expressed in Escherichia coli at 0.5 uM measured after 2 hrs in presence of NAD+ and trypsin by fluorescence assay
*1 amine or outer side, *2 acyl side, *3 side chain or, on linkers, in order; H or OH if unused. Where a SMILES comes first, the peptide text is derived from it. The star is where a group is joined. AMC = Cc1cc(=O)oc2cc(N*)ccc12; Suc = O=C(CCC(=O)[*:2])[*:1]; Decanoyl = CCCCCCCCCC(=O)*
property: Activity (RFU)

{"compound": "CC(=O)NCCCC[C@H](NC(=O)[C@H](CO)NC(=O)[C@H](Cc1ccccc1)NC(=O)[C@H](CC(=O)O)NC(C)=O)C(=O)Nc1ccc2c(C)cc(=O)oc2c1 (Ac-DFSK(Ac)-{AMC})", "property": "Activity", "unit_annotation": "RFU", "meas_value": 0.26}
{"compound": "CC(=O)NCCCC[C@H](NC(=O)[C@H](CCCNC(=N)N)NC(=O)[C@H](C)NC(=O)[C@@H](NC(C)=O)[C@@H](C)O)C(=O)Nc1ccc2c(C)cc(=O)oc2c1 (Ac-TARK(Ac)-{AMC})", "property": "Activity", "unit_annotation": "RFU", "meas_value": 0.26}
{"compound": "CC[C@H](C)[C@H](NC(C)=O)C(=O)N[C@@H](CCCNC(=N)N)C(=O)N[C@H](C(=O)N[C@@H](CCCCNC(=O)CCC(=O)O)C(=O)Nc1ccc2c(C)cc(=O)oc2c1)[C@@H](C)CC (Ac-IRIK(Suc)-{AMC})", "property": "Activity", "unit_annotation": "RFU", "meas_value": 0.32}
{"compound": "CC(=O)NCCCC[C@H](NC(=O)[C@H](CCCNC(=N)N)NC(=O)[C@H](CO)NC(=O)[C@H](CC(N)=O)NC(C)=O)C(=O)Nc1ccc2c(C)cc(=O)oc2c1 (Ac-NSRK(Ac)-{AMC})", "property": "Activity", "unit_annotation": "RFU", "meas_value": 0.27}
{"compound": "CCCCCCCCCC(=O)NCCCC[C@H](NC(=O)[C@H](CCC(N)=O)NC(=O)[C@@H](NC(=O)[C@H](CCCCN)NC(C)=O)C(C)C)C(=O)Nc1ccc2c(C)cc(=O)oc2c1 (Ac-KVQK(Decanoyl)-{AMC})", "property": "Activity", "unit_annotation": "RFU", "meas_value": 0.28}
{"compound": "CC(=O)NCCCC[C@H](NC(=O)[C@H](CCCCN)NC(=O)[C@H](Cc1cnc[nH]1)NC(=O)[C@H](CCCNC(=N)N)NC(C)=O)C(=O)Nc1ccc2c(C)cc(=O)oc2c1 (Ac-RHKK(Ac)-{AMC})", "property": "Activity", "unit_annotation": "RFU", "meas_value": 0.37}

[I] CC(=O)N[C@@H](CC(C)C)C(=O)NCC(=O)N[C@@H](CO)C(=O)N[C@@H](CCCCNC(=O)CCC(=O)O)C(=O)Nc1ccc2c(C)cc(=O)oc2c1 (Ac-LGSK(Suc)-{AMC})
[II] CCCCCCCCCC(=O)NCCCC[C@H](NC(=O)[C@H](CC(=O)O)NC(=O)[C@@H](NC(=O)[C@H](CCC(=O)O)NC(C)=O)[C@@H](C)O)C(=O)Nc1ccc2c(C)cc(=O)oc2c1 (Ac-ETDK(Decanoyl)-{AMC})
Select the item whose Activity value is smaller, choosing between I and II . Output the label that corresponds to your choice.
II
(II: 0.3 RFU, I: 3.07 RFU)
